Target: Human recombinant Acetyl-CoA Carboxylase 1 (ACC1) (Homo sapiens)
Experiment: Assay Y: ACC1 inhibition, inorganic phosphate (Malachite Green)
Type: biochemical
Conditions: Assay Y: room temperature, 3 hr, 15 min preincubation
property: IC50 (µM)
The reply should contain only the number, in µM.

CC(=O)NCc1cccc(-c2cc(C(=O)NC[C@H]3CC[C@H](CNC(=O)OC(C)(C)C)CC3)c3ccccc3n2)c1 [Example 100]    0.59

Query: Give the measured IC50 of CC(C)(C)OC(=O)NC[C@H]1CC[C@H](CNC(=O)c2ccnc(-c3ccc(C(N)=O)cc3)c2)CC1 [Example 50] .
Reply: 5.3

Query: Which IC50 value belongs to CCOc1ccc(-c2cc(C(=O)NC[C@H]3CC[C@H](CNC(=O)OC(C)(C)C)CC3)c3ccccc3n2)cc1 [Example 4] ?
Reply: 1.33

Query: # IC50 lookup, item C[C@@H](CO)Nc1ccc(-c2cc(C(=O)NC[C@H]3CC[C@H](CNC(=O)OC(C)(C)C)CC3)c3ccccc3n2)cn1 [Example 148]
Reply: 0.46

Query: Please report the recorded IC50 for CC(C)(C)OC(=O)NC[C@H]1CC[C@H](CNC(=O)c2cc(Cl)nc3ccccc23)CC1 [Example 35] .
Reply: 9.96
